Target: Delta-type opioid receptor (Rattus norvegicus)
Sequence (P33533 whole entry): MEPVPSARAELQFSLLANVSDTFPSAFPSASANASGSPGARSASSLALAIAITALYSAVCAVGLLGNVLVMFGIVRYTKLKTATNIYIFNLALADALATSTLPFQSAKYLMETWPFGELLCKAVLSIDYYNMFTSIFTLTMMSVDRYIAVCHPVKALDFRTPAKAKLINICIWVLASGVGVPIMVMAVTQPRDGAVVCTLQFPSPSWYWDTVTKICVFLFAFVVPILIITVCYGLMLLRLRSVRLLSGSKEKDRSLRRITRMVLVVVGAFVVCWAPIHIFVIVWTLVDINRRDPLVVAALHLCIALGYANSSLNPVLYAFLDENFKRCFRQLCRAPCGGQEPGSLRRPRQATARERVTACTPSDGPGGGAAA
Experiment: Displacement of [3H]Ile5,6-deltorphin from delta opioid receptor in Wistar rat brain membrane
Where a SMILES comes first, the peptide text is derived from it. [ ]: non-standard residue; d: D form. Tic = O=C(O)[C@@H]1Cc2ccccc2CN1; Cha = N[C@@H](CC1CCCCC1)C(=O)O
Recorded Ki values for a group of compounds are listed next.
result type: Ki (nM)

Cc1cc(O)cc(C)c1C[C@H](N)C(=O)N1Cc2ccccc2C[C@H]1C(=O)N[C@@H](C(=O)N[C@@H](Cc1ccccc1)C(N)=O)[C@H](C)C1CCCCC1 : 13
N[C@@H](Cc1ccc(O)cc1)C(=O)N1Cc2ccccc2C[C@H]1C(=O)N[C@@H](CC1CCCCC1)C(=O)N[C@@H](Cc1ccccc1)C(=O)O (H-Y[Tic][Cha]F-OH) : 0.61
Cc1cc(O)cc(C)c1C[C@H](N)C(=O)N1Cc2ccccc2C[C@H]1C(=O)N[C@@H](C(=O)N[C@@H](Cc1ccccc1)C(=O)O)[C@@H](C)C1CCCCC1 : 1.5
Cc1cc(O)cc(C)c1C[C@H](N)C(=O)N1Cc2ccccc2C[C@H]1C(=O)N[C@H](C(=O)N[C@@H](Cc1ccccc1)C(N)=O)[C@H](C)C1CCCCC1 : 4.1
Cc1cc(O)cc(C)c1C[C@H](N)C(=O)N1Cc2ccccc2C[C@H]1C(=O)N[C@H](C(=O)N[C@@H](Cc1ccccc1)C(=O)O)[C@H](C)C1CCCCC1 : 2
Cc1cc(O)cc(C)c1C[C@H](N)C(=O)N1Cc2ccccc2C[C@H]1C(=O)N[C@H](C(=O)N[C@@H](Cc1ccccc1)C(=O)O)[C@@H](C)C1CCCCC1 : 0.48

----------
Recorded pKi values for a group of compounds are listed next.
Target: Mu-type opioid receptor (Rattus norvegicus)
Sequence (P33535 whole entry): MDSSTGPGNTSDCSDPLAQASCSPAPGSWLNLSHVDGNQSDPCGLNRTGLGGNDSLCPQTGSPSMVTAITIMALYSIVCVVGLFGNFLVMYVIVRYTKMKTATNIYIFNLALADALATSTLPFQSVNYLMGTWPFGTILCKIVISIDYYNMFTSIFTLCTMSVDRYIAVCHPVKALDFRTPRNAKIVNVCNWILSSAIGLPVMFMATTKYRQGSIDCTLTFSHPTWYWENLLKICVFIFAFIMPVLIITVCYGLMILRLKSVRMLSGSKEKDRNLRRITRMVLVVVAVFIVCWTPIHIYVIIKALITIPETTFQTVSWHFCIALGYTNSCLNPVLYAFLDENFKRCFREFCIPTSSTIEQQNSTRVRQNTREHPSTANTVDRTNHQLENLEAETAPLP
pKi: −log10 of the molar value.
result type: pKi

Cc1cc(O)cc(C)c1C[C@H](N)C(=O)N1Cc2ccccc2C[C@H]1C(=O)N[C@@H](C(=O)N[C@@H](Cc1ccccc1)C(=O)O)[C@H](C)C1CCCCC1 : 6.24
Cc1cc(O)cc(C)c1C[C@H](N)C(=O)N1Cc2ccccc2C[C@H]1C(=O)N[C@H](C(=O)N[C@@H](Cc1ccccc1)C(=O)O)[C@@H](C)C1CCCCC1 : 5.85
Cc1cc(O)cc(C)c1C[C@H](N)C(=O)N1Cc2ccccc2C[C@H]1C(=O)N[C@@H](C(=O)N[C@@H](Cc1ccccc1)C(N)=O)[C@H](C)C1CCCCC1 : 6.54

----------
Mu-type opioid receptor (Rattus norvegicus) measurements of Ki, listed per entry.
Where a SMILES comes first, the peptide text is derived from it. [ ]: non-standard residue; d: D form. Tic = O=C(O)[C@@H]1Cc2ccccc2CN1; Cha = N[C@@H](CC1CCCCC1)C(=O)O
result type: Ki (nM)

N[C@@H](Cc1ccc(O)cc1)C(=O)N1Cc2ccccc2C[C@H]1C(=O)N[C@@H](CC1CCCCC1)C(=O)N[C@@H](Cc1ccccc1)C(=O)O (H-Y[Tic][Cha]F-OH) : 3600
Cc1cc(O)cc(C)c1C[C@H](N)C(=O)N1Cc2ccccc2C[C@H]1C(=O)N[C@@H](C(=O)N[C@@H](Cc1ccccc1)C(N)=O)[C@@H](C)C1CCCCC1 : 200
Cc1cc(O)cc(C)c1C[C@H](N)C(=O)N1Cc2ccccc2C[C@H]1C(=O)N[C@H](C(=O)N[C@@H](Cc1ccccc1)C(N)=O)[C@H](C)C1CCCCC1 : 170
Cc1cc(O)cc(C)c1C[C@H](N)C(=O)N1Cc2ccccc2C[C@H]1C(=O)N[C@@H](C(=O)N[C@@H](Cc1ccccc1)C(=O)O)[C@@H](C)C1CCCCC1 : 55
Cc1cc(O)cc(C)c1C[C@H](N)C(=O)N1Cc2ccccc2C[C@H]1C(=O)N[C@H](C(=O)N[C@@H](Cc1ccccc1)C(N)=O)[C@@H](C)C1CCCCC1 : 330
Cc1cc(O)cc(C)c1C[C@H](N)C(=O)N1Cc2ccccc2C[C@H]1C(=O)N[C@H](C(=O)N[C@@H](Cc1ccccc1)C(=O)O)[C@H](C)C1CCCCC1 : 280
